test system: MS2 coat protein; assay: apparent KD of MS2 coat protein; designed switch direction (-1 OFF switch, 1 ON switch): -1; higher = weaker reporter binding; settings: input ligand: microRNA oligo, concentration not stated
Property label: apparent KD of MS2 coat protein (nM)
Give the quantity in nM, number only.

Answer with the recorded apparent KD of MS2 coat protein for the sequence listed here: UAGGUACGAGGAUAUACAUAGAUACAGACACAUGUAGAUGUACAUGAGGAUCACCCAUGUAGAAGGCGUAUAUA [Mat - Same state - Mayanna Mod - D110] (Eterna round: R96, puzzle: Exclusion 2) 60.7

Answer with the recorded apparent KD of MS2 coat protein for the sequence listed here: ACAUGAGGAUCACCCAUGUAAUCAUGAUGGCUGAUGUAGAGGUAGGAUAUGUGUGGCUUUCUAUCACAGAAGGACCAAGACUGG [Deportation 38 - Jieux - Exclusion NG 3] (Eterna round: R96, puzzle: Exclusion NG 3) 46.6

Answer with the recorded apparent KD of MS2 coat protein for the sequence listed here: UGCUACAUGAGGAUCACCCAUGUAAUGUGGGAUUCGUUAGGACAGGAUAUGAUUGUAUAGUUUUUUCAGAAGGGUCAUUACUUU [JR_ExcNG3_Sub010] (Eterna round: R96, puzzle: Exclusion NG 3) 62.9

Answer with the recorded apparent KD of MS2 coat protein for the sequence listed here: AAAACGGACCGAGGAUAUACACGAUAUCUUUGCGUAGAAGGCGGACCGGCGACUUGAGGAUCACCCAAGUGUCCUCUUUUGCGG [Mutated MS2 EX1.4] (Eterna round: R96, puzzle: Exclusion NG 1) 110

====

tested on: MS2 coat protein; test: apparent KD of MS2 coat protein, switch OFF state (with FMN for OFF switches, without FMN for ON switches); designed switch direction (-1 OFF switch, 1 ON switch): -1; higher = weaker reporter binding; settings: FMN input: 0 or 200 uM; Eterna round: R93 (includes R88 designs)
Property label: apparent KD of MS2 coat protein (nM)
Give the quantity in nM, number only.

Answer with the recorded apparent KD of MS2 coat protein for the sequence listed here: AAAAAACAUGAGGAUCACCCAUGUCAGGAUAUGCGAAGCAAAAAAAAAAAAAAGCGAAGCAGAAGGGACUAAAA [Exclusion1 Malc#5] 32.9

Answer with the recorded apparent KD of MS2 coat protein for the sequence listed here: AGGGAGUGAGGAUAUGCGAAAGAAAAAGAAGGAAAAAAAAAGCAGAAGGUACAUGAGGAUCACCCAUGUAAAAA [milkweed 7] 16.9

Answer with the recorded apparent KD of MS2 coat protein for the sequence listed here: AGGAUGUCAGGAUAUGUGUAAAGAAUAAAAGAAAUAACAACACAGAAGGGACAUGAGGAUCACCCAUGUUAAAA [May 35] 44.3

Answer with the recorded apparent KD of MS2 coat protein for the sequence listed here: AAAAAACAUGAGGAUCACCCAUGUAAGGAUAUGUAAAAUAAAAGAAAAAUAAAGAAAAGCAGAAGGUAUAUGAA [JL wbt mod 13] 40.7

Answer with the recorded apparent KD of MS2 coat protein for the sequence listed here: AUCUACCUAGGAUAUACAUGAGGAUCACCCAUGUACAGUUUCAACUAGGGAAACUCACGUAGAAGGAGGUAGAU [JR_Exc003_Sub1209] 25.2

Answer with the recorded apparent KD of MS2 coat protein for the sequence listed here: AAAAAGUCAGGAUAUACGAAAAAAAAAAAAAAAAAAAAAAAGUAGAAGGGACAUGAGGAUCACCCAUGUAAAAA [Exclusion 4] 27.1

Answer with the recorded apparent KD of MS2 coat protein for the sequence listed here: AACUGUACAGGAUAUACAUGAGGAUCACCCAUGUGAGAAUUAAGUGGAGAACCACAAAGUAGAAGGGUACAGGA [Mat - Exclusion 3 - JL mod - D17] 218

Answer with the recorded apparent KD of MS2 coat protein for the sequence listed here: AAGAAGUAAGGAUAUCGUGCUCGUCACAAAAGUGAUGAGUACGAGAAGGUACAUGAGGAUCACCCAUGUAAAGA [Opal 35] 21.9

Answer with the recorded apparent KD of MS2 coat protein for the sequence listed here: AAAAAGUGAGGAUAUGCGCUGUCAUGUAGACACGAGCAGUCGUAGAAGGCACAUGAGGAUCACCCAUGUUUAAA [EX4 Malc#24] 20

Answer with the recorded apparent KD of MS2 coat protein for the sequence listed here: AGCUAGUCAGGAUAUACGAACAGGUCAAAAGACUUGAAGGGACAUGAGGAUCACCCAUGUAGAAGGGACUAGCA [Mat - Exclusion 2 - JL mod - D25] 128

Answer with the recorded apparent KD of MS2 coat protein for the sequence listed here: CUCAUGUAAGGAUAUGACUACAUAAAAAAAAAAAAAUGUAGUCAGAAGGUACAUGAGGAUCACCCAUGUACAAA [Brourd - Exclusion 4 - Sub 3] 25.2

Answer with the recorded apparent KD of MS2 coat protein for the sequence listed here: AAAAAACAUGAGGAUCACCCAUGUGAGGAUAUCUGUAUUCAAUCCUCGGAUUGAAUACAGAGAAGGCACAUGGG [Ex1: 609] 14.2

Answer with the recorded apparent KD of MS2 coat protein for the sequence listed here: AGGAAGUGAGGAUAUGCAUCAUAUAGUGGACGCUAUAGGAUGUAGAAGGCACAUGAGGAUCACCCAUGUUUAAA [EX4 Malc#40] 32
